Hello, the source for this data is patent US11702411B2, in case you need it.

- assayed system: SHP2 (Homo sapiens (Human), UniProt Q06124)
- protocol text: SHP2 allosteric inhibition assay (DiFMUP prompt fluorescence, activating peptide)
- Assay type: biochemical
- condition set: 0.2 nM SHP2, 0.5 μM activating peptide, DiFMUP substrate; read-out: SHP2 IC50
pIC50: −log10 of the molar value.
outcome measure: pIC50

# molecule, recorded number
measured = [
    ("CC1(N)CCN(c2ncc(-c3cccc(Cl)c3Cl)nc2CO)CC1 [Compound 3]", 6.34),
]

1: N[C@@H]1CCCC12CCN(c1ncc(-c3cccc(Cl)c3Cl)nc1CO)CC2 [Compound 2]
2: N[C@@H]1CCCC12CCN(c1ncc(-c3ccnc(Cl)c3Cl)nc1CO)CC2 [Compound 1]
## Input Just curious, which one has the larger pIC50 reading, 1 or 2 ? Your choice should be expressed through its label.
## Output 1

* * *

- assayed system: SHP2 (Homo sapiens (Human), UniProt Q06124)
- protocol text: SHP2 allosteric inhibition assay (DiFMUP prompt fluorescence, activating peptide)
- Type: biochemical
- condition set: 0.2 nM SHP2, 0.5 μM activating peptide, DiFMUP substrate; read-out: SHP2 Allosteric IC50
- Source text: Without wishing to be bound by theory, SHP is allosterically activated through binding of bis-tyrosyl-phosphorylated peptides to its Src Homology 2 (SH2) domains. […] The catalytic activity of SHP2 was monitored using the surrogate substrate DiFMUP in a prompt fluorescence assay format. […]
Quick reference for IC50 among some compounds

## Input Would you mind telling me what IC50 value was observed for C[C@@H]1OCC2(CCN(c3ncc(Sc4cccc(C#N)c4Cl)nc3CO)CC2)[C@@H]1N ?
## Output ≤ 50 nM

## Input Another: C[C@@H]1OCC2(CCN(c3ncc(-c4c(Cl)ccc(Cl)c4Cl)nc3CO)CC2)[C@@H]1N
## Output 50 to 500 nM

## Input Another: C[C@@H]1OCC2(CCN(c3ncc(Sc4ccnc(N5CC(O)C5)c4Cl)nc3CO)CC2)[C@@H]1N
## Output ≤ 50 nM

## Input Another: C[C@@H]1OCC2(CCN(c3ncc(Sc4cccc(Cl)c4Cl)nc3CO)CC2)[C@@H]1N
## Output ≤ 50 nM

## Input Another: C[C@@H]1OCC2(CCN(c3ncc(-c4cc(Cl)c5cn[nH]c5c4)nc3CO)CC2)[C@@H]1N
## Output 50 to 500 nM

## Input Another: C[C@@H]1OCC2(CCN(c3ncc(-c4cccc5cc[nH]c45)nc3CO)CC2)[C@@H]1N
## Output ≤ 50 nM

## Input Another: C[C@@H]1OCC2(CCN(c3ncc(Sc4cc(N)ncc4Cl)nc3CO)CC2)[C@@H]1N
## Output ≤ 50 nM

## Input Another: C[C@@H]1OCC2(CCN(c3ncc(-c4cc5ccccc5n4C)nc3CO)CC2)[C@@H]1N
## Output ≤ 50 nM

* * *

- assayed system: UniProtKB Q06124
- protocol text: SHP2 allosteric inhibition assay (DiFMUP prompt fluorescence, activating peptide)
- Type: biochemical
- condition set: 0.2 nM SHP2, 0.5 μM activating peptide, DiFMUP substrate; read-out: SHP2 Allosteric IC50
outcome measure: IC50

Take a look at these entries with their results.
# smiles input, assayed system, result
records = [
    ("C[C@@H]1OCC2(CCN(c3ncc(-c4ccc5c(c4Cl)OCC5)nc3CO)CC2)[C@@H]1N", "UniProtKB Q06124", "50 to 500 nM"),
    ("C[C@@H]1OCC2(CCN(c3ncc(-c4c(O)ccc(Cl)c4Cl)nc3CO)CC2)[C@@H]1N", "UniProtKB Q06124", "50 to 500 nM"),
    ("COc1ccc(F)c(-c2cnc(N3CCC4(CC3)CO[C@@H](C)[C@H]4N)c(CO)n2)c1Cl", "UniProtKB Q06124", "> 500 nM"),
    ("C[C@@H]1OCC2(CCN(c3ncc(-c4ccc5nccnc5c4Cl)nc3CO)CC2)[C@@H]1N", "UniProtKB Q06124", "50 to 500 nM"),
]

## Input Would you mind telling me what IC50 value was observed for CC1(N)CCN(c2ncc(Sc3ccnc(N)c3Cl)nc2CO)CC1 ?
## Output ≤ 50 nM

## Input Another: C[C@@H]1OCC2(CCN(c3ncc(Sc4ccnc(C#N)c4Cl)nc3CO)CC2)[C@@H]1N
## Output ≤ 50 nM

## Input Another: C[C@@H]1OCC2(CCN(c3ncc(-c4cccc(Cl)c4Cl)nc3C(F)F)CC2)[C@@H]1N
## Output 50 to 500 nM

## Input Another: C[C@@H]1OCC2(CCN(c3ccc(Sc4ccnc(N)c4Cl)nc3CO)CC2)[C@@H]1N
## Output ≤ 50 nM

## Input Another: C[C@@H]1OCC2(CCN(c3ncc(-c4ccc5[nH]ncc5c4)nc3CO)CC2)[C@@H]1N
## Output 50 to 500 nM

## Input Another: C[C@@H]1OCC2(CCN(c3ncc(Sc4ccnc(N5CC(S(C)(=O)=O)C5)c4Cl)nc3CO)CC2)[C@@H]1N
## Output ≤ 50 nM

## Input Another: CC1(N)CCN(c2ncc(-c3cccc(Cl)c3Cl)nc2CO)CC1
## Output 50 to 500 nM

## Input Another: COc1cccc(Sc2cnc(N3CCC4(CC3)CO[C@@H](C)[C@H]4N)c(CO)n2)c1Cl
## Output ≤ 50 nM

## Input Another: C[C@@H]1OCC2(CCN(c3ncc(-c4cc5[nH]ncc5cc4Cl)nc3CO)CC2)[C@@H]1N
## Output 50 to 500 nM
